PROTOCOL NOTES: folding stability dG unfold (combined trypsin and chymotrypsin); higher = more stable
Kind request: treat 3 kcal/mol as inclusive, so folding stability dG unfold at 3 kcal/mol or higher is TRUE, anything lower is FALSE.

Task item: Form field: folding stability dG unfold at least 3 kcal/mol? Entry: SAKKVKIEIKNKETNKIYTIEIKEDGKVTIKNKETGEEIEVEINGKKITFPPGASIDEIIKKLEEALKKSAG [r14_561_TrROS_Hall]
Reply: FALSE

Task item: Form field: folding stability dG unfold at least 3 kcal/mol? Entry: SAGGGMEEVAKKLGVPEDARLEVLKVERYYYTREVRDPLFEEGKPVGEKIIPRPYYSEKVDYKLFDKPSAGG [r13_482_JUSTAS]
Reply: FALSE

Task item: Form field: folding stability dG unfold at least 3 kcal/mol? Entry: SAGGMQALLRLPDTDEVVVLPDELLEAIASGDPERLAALPPEVREVISNVAELVVVPPPDGDPRPEGGSAGG [r13_233_TrMRF]
Reply: FALSE

Task item: Form field: folding stability dG unfold at least 3 kcal/mol? Entry: SAGGSAGGSAMTFFVAVVKTETRVLPDGSLETRSSIEVKPVPAIPAEDLIKKLGLPLEDIASAGGSAGGSAG [r3_338_TrMRF]
Reply: FALSE

Task item: Form field: folding stability dG unfold at least 3 kcal/mol? Entry: SAGGSAGGMPVVVETRPDPETGNEIVRITVPKPNYTLVLRRDSQGKETLLAEIGPYTPDDPGLLSAGGSAGG [r6_149_JUSTAS]
Reply: FALSE

Task item: Form field: folding stability dG unfold at least 3 kcal/mol? Entry: SAGAMQTVTLPTPDGRTVTLRHPGISVSVDPEKRTVTISVPSLGKVYTLTFAPDGTVAELSEEPIPELESAG [r5_342_JUSTAS]
Reply: FALSE

Task item: Form field: folding stability dG unfold at least 3 kcal/mol? Entry: SAGGSAGGWITLDLIKELAREAMNQAQLNGMENVPIEIRWPDGWRIKIEINMNKVEVDVQPWNDSAGGSAGG [r6_270_TrROS]
Reply: FALSE

Task item: Form field: folding stability dG unfold at least 3 kcal/mol? Entry: SAGGSAGGMVKVSSDPATGKVYVTYPGADPEAVAEKVKKEYGAKKIKVEKDPNKDVTTITITVESAGGSAGG [r6_662_JUSTAS]
Reply: FALSE

Task item: Form field: folding stability dG unfold at least 3 kcal/mol? Entry: SAGGSAGGSAGVTIPDPGEEELRKALEAGREVRVAFPESGKVVLVEGPGPELGEEPEPAASAGGSAGGSAGG [r11_94_JUSTAS]
Reply: FALSE

Task item: Form field: folding stability dG unfold at least 3 kcal/mol? Entry: SAGGSAMIKIKLPNGEVAEIELSPDGKKVLIRYKDGSIEEIEIKDGKITKIKPLPNAPPNAEIVEVSAGGSA [r15_709_TrROS_Hall]
Reply: FALSE

Task item: Form field: folding stability dG unfold at least 3 kcal/mol? Entry: SAGGMKLVVTKVGEDDNTEYYLITDPGSAEAIREAIKKLVPKDLPYKVTVLSYDPATGTYTVLVEVKRSAGG [r13_491_JUSTAS]
Reply: TRUE

Task item: Form field: folding stability dG unfold at least 3 kcal/mol? Entry: SAMPPGAIVKVKIISKERRIDNELGVEVVGYTEKEEDVKVLEVKEPGEKVELKLEIPNLPEGSELELGFSAG [r14_412_TrMRF]
Reply: FALSE

Task item: Form field: folding stability dG unfold at least 3 kcal/mol? Entry: SAGGSAGGSAPMVLLLEFDSPEEATEAAKKIAEEFEKLGAKVEVEIFKPPEDKYLVLIRIDSAGGSAGGSAG [r3_211_TrMRF]
Reply: TRUE

Task item: Form field: folding stability dG unfold at least 3 kcal/mol? Entry: SAGGSAGGSAGKKKGKKPKKIKVKKIKLIVKDKETNEYYEKEITVNKDGTLTIKVKKLKKSAGGSAGGSAGG [r11_883_TrROS_Hall]
Reply: FALSE

Task item: Form field: folding stability dG unfold at least 3 kcal/mol? Entry: SMVFTLPGGIEIKVEPEEDSYRFVIELPSGERLEVPVPPENLEEFIRELIRKALEIANPNITEEEIEKLASA [r9_634_TrMRF]
Reply: TRUE

Task item: Form field: folding stability dG unfold at least 3 kcal/mol? Entry: SAGGKKVFTLDELKKLAEELNIEKIEVKEDEEGIYTFTFTDLAKKTGKEVTIKIVRNKNGELLVEIEPSAGG [r13_163_TrROS_Hall]
Reply: FALSE

Task item: Form field: folding stability dG unfold at least 3 kcal/mol? Entry: SAGGSAGGSAGGSELVGPEKAKEIIKEAYEKGYEEIPILLHLPNGETEEKIIKVPKNKISAGGSAGGSAGGS [r4_342_TrMRF]
Reply: FALSE

Task item: Form field: folding stability dG unfold at least 3 kcal/mol? Entry: SAGGSAGGSKEKVIEIKIKVKTKEEAKKKAEELAKELEKKGYKIKKVEIKYDKETKEVTVRIESAGGSAGGS [r20_155_TrROS_Hall]
Reply: TRUE

Task item: Form field: folding stability dG unfold at least 3 kcal/mol? Entry: SAGGSAGGSAGGEKPKYIIIPATLTVPVLTKEGEGEKVEYKEITLLLIINPDTNEITVSSAGGSAGGSAGGS [r10_533_TrMRF]
Reply: FALSE

Task item: Form field: folding stability dG unfold at least 3 kcal/mol? Entry: SAGGSAGGSAGGKKLRIKVKNKKTGKEIEIEIDVEDKTIEEIAKELAKKLNFEVTEIEPVSAGGSAGGSAGG [r7_590_TrROS_Hall]
Reply: FALSE

Task item: Form field: folding stability dG unfold at least 3 kcal/mol? Entry: SAGGSAGGSAPNQRREVPFYIYFPDDGKMFPFKQEKDPDPPKLKLKLPPEDFPPIEIMPGGSAGGSAGGSAG [r3_454_TrROS]
Reply: FALSE

Task item: Form field: folding stability dG unfold at least 3 kcal/mol? Entry: SAGGREITIMIWMPLEDMEEFANEIANALAAEGYKVKDIEIQFKVIPDPENGRPWVMFMIEVEIEPPSAGGS [r8_475_TrROS]
Reply: TRUE

Task item: Form field: folding stability dG unfold at least 3 kcal/mol? Entry: SAGGSAGGSAGPIVLIKIKNKNGKEIEIEMSLEELKKKLPKELKNMKVEIVEVKEVKVEKSAGGSAGGSAGG [r11_353_TrROS_Hall]
Reply: FALSE

Task item: Form field: folding stability dG unfold at least 3 kcal/mol? Entry: NIRFPDGREIEIPPEPGEEYEIMLPNGPEIKIKKIKYENGEPTIEIERKDGGKKEHEMPPNQPDQILDAIRS [r1_66_TrROS]
Reply: FALSE

Task item: Form field: folding stability dG unfold at least 3 kcal/mol? Entry: SAGGSAGGSAGSKTPSVLVIEVDANTSIEKILELYKKNYPVGEIRVFTRPDGRKIAVITGSAGGSAGGSAGG [r11_97_TrMRF]
Reply: FALSE

Task item: Form field: folding stability dG unfold at least 3 kcal/mol? Entry: SAGGSAGGSLKPFPIEDITVQPRRNPDGNRYYQVSIRIKGPGRPINIPFPMDNPKKFLEDIIKSAGGSAGGS [r20_238_TrROS]
Reply: FALSE

Task item: Form field: folding stability dG unfold at least 3 kcal/mol? Entry: SAGGDWMLVIEIEIEGQPTPDGQIKVEISIEIELVRPPPPPITPWDRMAEEARDKNPNIPPDDPEAMTSAGG [r13_136_TrROS]
Reply: FALSE
